system.tested: USP1/UAF1 (Homo sapiens (Human))
method.summary: qHTS assay for USP1/UAF1 activity (fluorometric, ubiquitin-rhodamine110)
Format: biochemical
recorded.conditions: USP1/UAF1 inhibition, Table 4
pIC50: −log10 of the molar value.
measured.attribute: pIC50

Worked cases, pIC50 given:
[in] Look at this compound and give its reported pIC50. "Cc1cnc(-c2ccccc2C(C)C)nc1NC1(c2ccc(-c3cccnc3)cc2)CC1"
[out] 7.47

[in] Look at this compound and give its reported pIC50. "Cc1cnc(-c2ccccc2C(C)C)nc1NCc1ccc(-c2ccnc(C(F)(F)F)c2)cc1"
[out] 6.42

[in] Look at this compound and give its reported pIC50. "Cc1cnc(-c2ccccc2C(C)C)nc1NCc1ccc(-c2nnn[nH]2)cc1"
[out] 5.12

[in] Look at this compound and give its reported pIC50. Cc1cnc(-c2ccccc2C(C)C)nc1NCC1CC(c2cccnc2)C1 (stereo not drawn)
[out] 5.17

[in] Look at this compound and give its reported pIC50. "Cc1cccc(CNc2nc(-c3ccccc3C(C)C)ncc2C)c1"
[out] 6.85

1. Cc1cccc(C(CO)Nc2nc(-c3ccccc3C(C)C)ncc2C)c1 (stereo not drawn)
2. Cc1cnc(-c2ccccc2C(C)C)nc1NCC1CCN(c2cnccn2)CC1
3. Cc1cnc(-c2ccccc2C(C)C)nc1NCc1ccc(C(N)=O)cc1
4. Cc1cnc(-c2ccccc2C(C)C)nc1NC(C)(C)c1ccc(-c2cccnc2)cc1
[in] // ascending sort on recorded pIC50 Please respond by ranking the labels in the order requested.
[out] 3, 1, 4, 2
(3: 5.17, 1: 5.96, 4: 6.72, 2: 6.92)

----------
system.tested: USP1/UAF1 (Homo sapiens (Human), UniProt O94782)
Sequence (O94782 whole entry): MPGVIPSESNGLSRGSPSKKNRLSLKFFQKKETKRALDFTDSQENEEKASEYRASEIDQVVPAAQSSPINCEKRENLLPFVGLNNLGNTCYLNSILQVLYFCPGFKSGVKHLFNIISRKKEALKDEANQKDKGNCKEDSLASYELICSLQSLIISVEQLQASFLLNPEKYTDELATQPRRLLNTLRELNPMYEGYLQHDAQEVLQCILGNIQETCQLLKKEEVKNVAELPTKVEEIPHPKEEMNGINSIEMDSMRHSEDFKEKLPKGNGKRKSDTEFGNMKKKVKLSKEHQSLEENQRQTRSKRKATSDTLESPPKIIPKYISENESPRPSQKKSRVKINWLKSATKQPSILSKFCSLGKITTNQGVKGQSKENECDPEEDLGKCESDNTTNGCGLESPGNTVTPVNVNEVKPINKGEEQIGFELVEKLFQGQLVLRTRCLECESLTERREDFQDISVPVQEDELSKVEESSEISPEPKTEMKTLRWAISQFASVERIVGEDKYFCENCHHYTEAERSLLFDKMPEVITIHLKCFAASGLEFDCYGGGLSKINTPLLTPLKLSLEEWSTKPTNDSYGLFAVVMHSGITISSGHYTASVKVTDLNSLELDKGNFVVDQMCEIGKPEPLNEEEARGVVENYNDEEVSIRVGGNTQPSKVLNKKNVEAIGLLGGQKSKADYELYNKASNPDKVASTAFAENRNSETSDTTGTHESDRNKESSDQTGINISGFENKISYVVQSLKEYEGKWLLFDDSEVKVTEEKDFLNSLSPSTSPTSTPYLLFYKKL
Sequence (Q8TAF3 whole entry partner): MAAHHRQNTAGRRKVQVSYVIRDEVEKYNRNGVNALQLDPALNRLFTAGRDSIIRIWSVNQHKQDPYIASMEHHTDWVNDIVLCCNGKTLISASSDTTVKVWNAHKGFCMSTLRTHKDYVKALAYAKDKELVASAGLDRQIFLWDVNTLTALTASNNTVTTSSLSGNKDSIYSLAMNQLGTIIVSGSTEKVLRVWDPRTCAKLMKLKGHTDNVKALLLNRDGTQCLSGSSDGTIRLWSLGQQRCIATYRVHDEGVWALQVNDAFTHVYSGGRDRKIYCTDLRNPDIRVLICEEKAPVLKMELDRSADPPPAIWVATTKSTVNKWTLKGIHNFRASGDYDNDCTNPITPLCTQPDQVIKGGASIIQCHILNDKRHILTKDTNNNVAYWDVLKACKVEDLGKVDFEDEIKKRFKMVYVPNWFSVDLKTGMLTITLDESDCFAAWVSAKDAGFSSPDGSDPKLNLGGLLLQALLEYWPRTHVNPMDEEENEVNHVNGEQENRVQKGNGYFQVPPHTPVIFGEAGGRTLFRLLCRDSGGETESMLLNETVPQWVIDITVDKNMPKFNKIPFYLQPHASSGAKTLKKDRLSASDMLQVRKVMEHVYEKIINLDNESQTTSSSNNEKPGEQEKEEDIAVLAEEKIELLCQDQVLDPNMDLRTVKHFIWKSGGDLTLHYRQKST
method.summary: qHTS assay for USP1/UAF1 activity (fluorometric, ubiquitin-rhodamine110)
Format: biochemical
recorded.conditions: USP1/UAF1 inhibition, Table 3
measured.attribute: IC50 (nM)

[in] Look at this compound and give its reported IC50. "CC(C)c1ccccc1-c1ncc(F)c(NCc2ccc(-c3ccccc3)cc2)n1"
[out] 61

a. CC(C)c1ccccc1-c1ncc(N(C)C)c(NCc2ccc(-c3ccccc3)cc2)n1
b. CC(C)c1ccccc1-c1nc(NCc2ccc(-c3ccccc3)cc2)c2nc[nH]c2n1
c. CCc1cnc(-c2ccccc2C(C)C)nc1NCc1ccc(-c2ccccc2)cc1
[in] // ascending sort on recorded IC50 Please respond by ranking the labels in the order requested.
[out] c, a, b
(c: 43 nM, a: 150 nM, b: 2120 nM)
